We begin with a simple list: items and their reported protein stability index.
B1: PPFIA4 (parent)
chain: PGVHRRYSALREESAKDWETSPLP

# Variants of: B1
# assayExplanation: protein stability index of a GFP-peptide fusion (GPS, HEK-293T) (PSI 1-6); higher = more stable;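 also: lentivirally expressed fusions sorted by FACS into six bins by GFP to DsRed ratio, PSI derived from sequencing read proportions per bin multiplied by bin number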
# conditionLabel: c terminus: a fixed tail appended
No unit in the answer, please; the number alone is enough.

Please review the entries below; each comes with its answer.
seqText	protein stability index
PGVHRRHSALREESAKDWETSPLP [Y7H]	4.39
PGVHRRYSALREESAKCWETSPLP [D17C]	3.53

Query :: Return protein stability index (reported value) for this variant: PGVHRRYSALREGSAKDWETSPLP [E13G]
Result :: 3.93

Query :: Return protein stability index (reported value) for this variant: PGVHRRYSALLEESAKDWETSPLP [R11L]
Result :: 3.86

Query :: Return protein stability index (reported value) for this variant: PGVHRRYSALREESAKDWRTSPLP [E19R]
Result :: 3.55

Query :: Return protein stability index (reported value) for this variant: PGVCRRYSALREESAKDWETSPLP [H4C]
Result :: 2.79
